- tested_on: Gastrin/cholecystokinin type B receptor (Cavia porcellus)
- procedure_text: Inhibition of [125I]-labeled CCK-8 sulfate binding to Cholecystokinin type B receptor in guinea pig brain membranes
endpoint_name: IC50

-- ask Which IC50 is listed for CCc1cccc(-n2c(CCc3c[nH]c4ccc(Br)cc34)nc3ccccc3c2=O)c1 ?
-- reply 330 nM

---

- tested_on: Gastrin/cholecystokinin type B receptor (Cavia porcellus)
- procedure_text: Inhibition of [125I]-labeled CCK-8 sulfate binding to Cholecystokinin type B receptor in guinea pig brain membranes
endpoint_name: pIC50
The meaning of pIC50 here: minus log10 of the concentration in molar units.

-- ask Consider the compound CCc1cccc(-n2c(CCc3c[nH]c4ccc(Br)cc34)nc3ccccc3c2=O)c1 and give its measured pIC50.
-- reply 6.48

meta.source: BindingDB's records for doi:10.1021/jm00108a040
